Reference for the values: the RNAGym collection of RNA variant scans (doi:10.1093/nar/gkz1192)

B1: CPEB3 Ribozyme (parent)
chain: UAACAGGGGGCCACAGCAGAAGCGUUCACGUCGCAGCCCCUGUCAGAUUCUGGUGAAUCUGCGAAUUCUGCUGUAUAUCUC

- Variants of: B1
- Measurement protocol: self-cleavage, relative activity (ratio to wild type); higher = more cleavage; in vitro, sequencing
Decision: self-cleavage compared against 0.7; not below it gives T, below it gives F.

{"columns": ["Mutant name", "Class name"],
 "data": [
  ["G33A U76C", "F"],
  ["C23U U48C", "F"],
  ["C38U A77G", "T"],
  ["U48A A75U", "F"],
  ["U26A U80A", "T"]
]}

INPUT: // inclusive: self-cleavage at least 0.7? input: A18C U67C
OUTPUT: F
